Tested on: modified luciferase
Assay: Luciferase expression in liver, lung, spleen and femur 6 hours after intravenous administration to mice
Type: in vivo
Test Conditions: liver, 6 hours after intravenous 0.5 mpk, mice
Exercise: for every item that follows, state its recorded Total Flux, Liver.

Check out these entries, answers already filled in.
> print(dat)
                                   molecule    result
1  CCCCCCCCCOC(=O)CCCCCCCN(CCCCCCCC(=O)OC(CCCCCCCC)CCCCCCCC)CCCNS(C)(=O)=O [Compound 109]  8.17E+08
2  CCCCCCCCCOC(=O)CCCCCCCN(CCCCCCCC(=O)OC(CCCCCCCC)CCCCCCCC)C(CO)CO [Compound 156]  6.51E+08
3  CCCCCCCCCOC(=O)CCCCCCCN(CCO)CCCCCCCCCC(=O)OC(CCCCCC)CCCCCC [Compound 147]  5.24E+09

Quick note, Total Flux, Liver for CCCCCCCCC(CCCCCCCC)OC(=O)CCCCCCCN(CCO)CCCCCCCC(=O)OC1CCC(CCCCC)CC1 (stereo not shown) [Compound 66] landed at 5.01E+09
